Molecular target: mouse MMP-2 (R&D Systems #924-MP-010) (mouse) (UniProt P33434)
Assay: Ki,app, enzyme inhibition assay (fluorogenic peptide substrate), small-scale sFab
Exercise: state measured pKi for each of the binders provided.
In simple prose, pKi is minus the logarithm base ten of a concentration in moles per litre.

For M0274-G08 (Fab, V domains shown) VH: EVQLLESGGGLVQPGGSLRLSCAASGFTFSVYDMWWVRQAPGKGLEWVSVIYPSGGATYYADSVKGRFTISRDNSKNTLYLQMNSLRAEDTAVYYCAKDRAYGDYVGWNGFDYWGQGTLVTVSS VL: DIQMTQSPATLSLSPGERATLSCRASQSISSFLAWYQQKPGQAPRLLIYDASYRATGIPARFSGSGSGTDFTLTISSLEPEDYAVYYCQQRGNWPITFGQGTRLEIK the binder record lists pKi as 8.57

So, M0301-A09 (Fab, V domains shown) VH: EVQLLESGGGLVQPGGSLRLSCAASGFTFSYYDMWWVRQAPGKGLEWVSVIYPSGGYTAYADSVKGRFTISRDNSKNTLYLQMNSLRAEDTAVYYCAKDRAYGDYVGWNGFDYWGQGTLVTVSS VL: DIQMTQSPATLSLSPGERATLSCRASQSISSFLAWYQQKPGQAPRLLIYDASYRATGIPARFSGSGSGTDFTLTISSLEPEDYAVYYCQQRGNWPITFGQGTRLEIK ? Its pKi was 7.68

Entry M0273-G07 (Fab, V domains shown) VH: EVQLLESGGGLVQPGGSLRLSCAASGFTFSHYDMWWVRQAPGKGLEWVSVIYPSGGPTYYADSVKGRFTISRDNSKNTLYLQMNSLRAEDTAVYYCAKDRAYGDYVGWNGFDYWGQGTLVTVSS VL: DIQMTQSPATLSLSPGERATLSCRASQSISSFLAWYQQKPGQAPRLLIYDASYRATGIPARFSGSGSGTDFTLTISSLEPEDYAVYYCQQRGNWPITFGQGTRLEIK , pKi reported as 7.66

Record M0273-C10 (Fab, V domains shown) VH: EVQLLESGGGLVQPGGSLRLSCAASGFTFSFYPMWWVRQAPGKGLEWVSYIYPSGGATFYADSVKGRFTISRDNSKNTLYLQMNSLRAEDTAVYYCAKDRAYGDYVGWNGFDYWGQGTLVTVSS VL: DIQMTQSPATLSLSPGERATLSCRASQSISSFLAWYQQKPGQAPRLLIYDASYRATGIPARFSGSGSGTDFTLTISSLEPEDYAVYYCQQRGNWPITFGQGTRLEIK . Reported pKi: 7.74

What the record says about M0276-F11 (Fab, V domains shown) VH: EVQLLESGGGLVQPGGSLRLSCAASGFTFSWYDMWWVRQAPGKGLEWVSVIYSSGGPTFYADSVKGRFTISRDNSKNTLYLQMNSLRAEDTAVYYCAKDRAYGDYVGWNGFDYWGQGTLVTVSS VL: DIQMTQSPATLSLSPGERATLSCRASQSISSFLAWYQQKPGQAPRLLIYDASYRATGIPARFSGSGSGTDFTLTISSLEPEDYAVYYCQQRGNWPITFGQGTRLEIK : pKi is 8.43

// sample M0275-D03 (Fab, V domains shown) VH: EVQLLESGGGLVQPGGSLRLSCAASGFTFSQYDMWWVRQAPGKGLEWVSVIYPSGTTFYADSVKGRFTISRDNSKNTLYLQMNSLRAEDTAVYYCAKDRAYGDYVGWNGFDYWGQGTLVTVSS VL: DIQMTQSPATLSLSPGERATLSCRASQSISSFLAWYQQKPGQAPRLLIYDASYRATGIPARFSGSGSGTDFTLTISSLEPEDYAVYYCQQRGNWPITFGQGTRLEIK , its pKi was 8.27

The reported value for M0307-F04 (Fab, V domains shown) VH: EVQLLESGGGLVQPGGSLRLSCAASGFTFSLYDMWWVRQAPGKGLEWVSVIYSSGGYTGYADSVKGRFTISRDNSKNTLYLQMNSLRAEDTAVYYCAKDRAYGDYVGWNGFDYWGQGTLVTVSS VL: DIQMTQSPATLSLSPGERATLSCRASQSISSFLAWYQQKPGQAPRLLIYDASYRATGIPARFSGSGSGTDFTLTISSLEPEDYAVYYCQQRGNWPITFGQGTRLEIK in terms of pKi is 8.66

So for M0301-D12 (Fab, V domains shown) VH: EVQLLESGGGLVQPGGSLRLSCAASGFTFSMYDMWWVRQAPGKGLEWVSVIYSSGGYTSYADSVKGRFTISRDNSKNTLYLQMNSLRAEDTAVYYCAKDRAYGDYVGWNGFDYWGQGTLVTVSS VL: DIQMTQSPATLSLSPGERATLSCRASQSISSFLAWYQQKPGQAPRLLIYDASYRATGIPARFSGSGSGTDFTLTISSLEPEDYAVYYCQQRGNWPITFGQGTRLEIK , the logged pKi turned out to be 7.60

For M0299-A12 (Fab, V domains shown) VH: EVQLLESGGGLVQPGGSLRLSCAASGFTFSHYPMWWVRQAPGKGLEWVSYISSSGGGTFYADSVKGRFTISRDNSKNTLYLQMNSLRAEDTAVYYCAKDRAYGDYVGWNGFDYWGQGTLVTVSS VL: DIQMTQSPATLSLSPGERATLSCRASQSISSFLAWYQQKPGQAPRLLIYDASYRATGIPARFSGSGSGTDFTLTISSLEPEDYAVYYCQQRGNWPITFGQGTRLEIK the binder record lists pKi as 7.52

Briefly, pKi measured for M0273-B10 (Fab, V domains shown) VH: EVQLLESGGGLVQPGGSLRLSCAASGFTFSKYAMIWVRQAPGKGLEWVSWIPPSGGYTSYADSVKGRFTISRDNSKNTLYLQMNSLRAEDTAVYYCAKDRAYGDYVGWNGFDYWGQGTLVTVSS VL: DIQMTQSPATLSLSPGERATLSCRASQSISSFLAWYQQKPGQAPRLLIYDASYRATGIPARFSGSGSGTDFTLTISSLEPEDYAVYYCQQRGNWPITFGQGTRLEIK : 7.23
